- test-target: T1, RSV F ectodomain stabilized in the postfusion conformation (F ΔFP), subtype B (Respiratory syncytial virus subtype B, UniProt P13843 26-109; P13843 147-524)
- T1 construct: extracellular domain; trimer; also called Postfusion subtype B; postF subtype B
- measurement-notes: BLI, IgG on AHQ sensor, 100 nM antigen
experimental-readout: pKd
Reminder that pKd is minus the log10 of a molar concentration.

For orientation, consider the following solved cases.
binder	measured
ADI-14473 (antibody, V domains shown, full-length IgG (yeast-expressed); also called Antibody Number 35; Ab# 35) VH: QVQLVQSGAEVKKPGEPLRISCKGSGYTFTSYWISWVRQMPGTGLEWMGRIDPSDSYTYSSPSFQGHVTISVDKSISTAYLQWSSLKASDTAIYYCARHKENYDFWDFWGQGTLVTVSS VL: ETTLTQSPDSLAVSLGERATINCKSSQTIFFNSNNKISLAWYQQKPGQPPKLLISWASTRESGVPDRFSGSGSGTDFTLTISSLQPEDVAVYFCQQYYSSAFFGPGTRLEIK	9.82
ADI-14445 (antibody, V domains shown, full-length IgG (yeast-expressed); also called Antibody Number 8; Ab# 8) VH: EVQLLESGAVMKRPGSSVRVSCRASGVTLTTVSVNWVRQVPGQGPEWIGGILIGFGKVRQAQKFENRVTLTADASRNTAYMELSGLTSDDTAVYYCAIIDPQDCTRASCFWVNWLDPWGQGTLVTVSS VL: DIRMTQSPGTLTLSPGERATLSCRASQSILSGNLAWYQQKPGQAPRLLISAASTRATDIPDRFSGSGSGTDFTLTITRLEPQDFAVYYCQQYDSAPITFGQGTRLEIK	7.82
ADI-14471 (antibody, V domains shown, full-length IgG (yeast-expressed); also called Antibody Number 34; Ab# 34) VH: QVQLVQSGAEVKKPGSSVKVSCKASGGTFGSYAVIWVRQAPGQGLEWMGHIIPVFGTINNAQKFQGRLTLSADESTGTVYMGLSSLRSDDTAVYFCATKRYCSDPSCHGLWYFDLWGRGTLVTVSS VL: DIRLTQSPLSLPVTPGEPASISCRSSQSLLDSDDGNTYLDWYLQKPGQSPQVLIYMLSYRASGVPDRFSGSGSGTDFTLKISRVEAEDVGVYYCMQRAEFPYTFGQGTKLEIK	9.82

Documented pKd of ADI-14459 (antibody, V domains shown, full-length IgG (yeast-expressed); also called Antibody Number 22; Ab# 22) VH: QVQLVQSGGGLVKPGGSLRLSCAASGFTFSNAWMSWVRQAPGKGLDWVGRIKTKADGGTRDYAAPVKGRFTISRDDSENTLYLQMTSLKTEDTGVYYCSTGPPYKYHDSTGYSVVDYWGQGTLVTVSS VL: SYELTQPPSASGTPGQRVTISCSGGSSNIGSDYVYWYQQLPGTAPKLLIYGSSQRPSGVPDRFSGSQSGTSASLAISGLRSEDEADYYCAMWDDSLNGPVFGGGTKLTVL : 9.74

Documented pKd of ADI-14457 (antibody, V domains shown, full-length IgG (yeast-expressed); also called Antibody Number 20; Ab# 20) VH: QVTLKESGPALVRPKQTLTLTCSFSGFSLDTQRTGVNWIRQSPGKALEWLARIDWDGNIYSSTSVRTKLSISKGTSKNQVVLTMTDVDPVDTATYYCARTLYYTSGGYYLNLFDYWGQGTLVTVSS VL: EIVMTQSPPSLSASVGDRVTITCRASQTIPSYVNWYQQISGKAPRLLIYAASLLQSGVPSRFSGSGSGTEFSLTISGLRPEDFGTYYCQQSYSSTPTFGQGTKVEIK : 9.34
